experiment: Solubility determination in oil (Table 10); conditions: 40 °C, water, thermodynamic from solid, Equilibrium solubility: Water, Heating Temp. 60 °C, Obs. Temp. 40 °C
property: solubility thermodynamic

Completed entries (count: 3):
C=C1CC[C@@]2(O)C3Cc4ccc(OC(=O)CCCCCCCCCCCCCCC)c5c4[C@@]2(CCN3CC2CC2)[C@H]1O5 = 67.9 µg/mL
C=C1CC[C@@]2(O)C3Cc4ccc(OC(=O)CCCCCCCCCCCCCCCCCCC)c5c4[C@@]2(CCN3CC2CC2)[C@H]1O5 = 11 µg/mL
CC(C)(C)CC(=O)Oc1ccc2c3c1O[C@H]1C(=O)CC[C@@]4(O)C(C2)N(CC2CC2)CC[C@]314 = 68 µg/mL

Then this compound:
GET /value?item= "C=C1CC[C@@]2(O)C3Cc4ccc(OC(=O)CC(C)(C)C)c5c4[C@@]2(CCN3CC2CC2)[C@H]1O5" &field=solubility thermodynamic returns 210 µg/mL

* * *

assay: Dog pharmacokinetic studies, deep intramuscular administration; type: in vivo, Beagle dogs; conditions: Beagle, dog, plasma, im, 48 mg/kg, IM 48 mg/kg (shallow), Sesame oil + 1% Benzyl Alcohol; read-out: AUC0-inf (ng · h/mL) prodrug
property: AUC(0-inf)

GET /value?item= C=C1CC[C@@]2(O)C3Cc4ccc(OC(=O)OCCCCCCCCCCCC)c5c4[C@@]2(CCN3CC2CC2)[C@H]1O5 [Compound 6] &field=AUC(0-inf) returns 1020 ng·h/mL

* * *

experiment: Solubility determination in oil (Table 10); settings: 40 °C, water, thermodynamic from solid, Equilibrium solubility: Water, Heating Temp. 40 °C, Obs. Temp. 40 °C
property: solubility thermodynamic

Completed entries (count: 2):
C=C1CC[C@@]2(O)C3Cc4ccc(OC(=O)CCCCCCC/C=C\C/C=C\C/C=C\CC)c5c4[C@@]2(CCN3CC2CC2)[C@H]1O5 = < 0.2 µg/mL
CCCCCCCC/C=C/CCCCCCCC(=O)OCOc1ccc2c3c1O[C@H]1C(=O)CC[C@@]4(O)C(C2)N(CC2CC2)CC[C@]314 = < 1 µg/mL

GET /value?item= "C=C1CC[C@@]2(O)C3Cc4ccc(OC(=O)CCCCCCC/C=C/CCCCCCCC)c5c4[C@@]2(CCN3CC2CC2)[C@H]1O5" &field=solubility thermodynamic returns < 0.2 µg/mL

GET /value?item= "C=C1CC[C@@]2(O)C3Cc4ccc(OC(=O)CCCCCCCCCCCCCCCCCCC)c5c4[C@@]2(CCN3CC2CC2)[C@H]1O5" &field=solubility thermodynamic returns 206 µg/mL

GET /value?item= "C=C1CC[C@@]2(O)C3Cc4ccc(OC(=O)CCCCCCCCCCCCCCCCC)c5c4[C@@]2(CCN3CC2CC2)[C@H]1O5" &field=solubility thermodynamic returns 43 µg/mL

GET /value?item= "C=C1CC[C@@]2(O)C3Cc4ccc(OCOC(=O)OCCCCCCCCCCCC)c5c4[C@@]2(CCN3CC2CC2)[C@H]1O5" &field=solubility thermodynamic returns < 1 µg/mL

* * *

assay: Polymorph screening of solid state drug substances (Table 23); format: physicochemical; settings: MTBE, stirred 50 °C 72 hours, dried solid
property: Dry method and appearance

C=C1CC[C@@]2(O)C3Cc4ccc(OC(=O)CCCCCCCCCCCCCCCCCCC)c5c4[C@@]2(CCN3CC2CC2)[C@H]1O5 [Compound 16] = Evaporation/white powder
CCCCCCCCCCCCCCCCOC(=O)Oc1ccc2c3c1O[C@H]1C(=O)CC[C@@]4(O)C(C2)N(CC2CC2)CC[C@]314 [Compound 21] = Evaporation/white powder
CCCCCCCCCCCCCCCC(=O)Oc1ccc2c3c1O[C@H]1C(=O)CC[C@@]4(O)C(C2)N(CC2CC2)CC[C@]314 [Compound 55] = Evaporation/white powder
